Numbers sourced from ChEMBL document CHEMBL3885861.

Species on record: Rattus norvegicus
protocol: Open TG-GATES - Regimen: Daily Repeat
Format: toxicity, organism-based, Sprague-Dawley
Set-up: regimen Daily Repeat, gender Male, age 6 weeks
experimental.setup: in vivo, po, 300 mg/kg, 72 h, route gavage, dose level Middle, time 3 day
parameter: TERMINAL_BW (g)
Kindly provide the numeric value in g only, without the unit symbol.

| molecule | unit.abbreviation | TERMINAL_BW |
| --- | --- | --- |
| O=C(O)c1cccnc1 [NIACIN] | g | 241.8 |
| CC(C)(S)[C@@H](N)C(=O)O [PENICILLAMINE] | g | 235.2 |
| CCN1CCCC1CNC(=O)c1cc(S(N)(=O)=O)ccc1OC (centres undefined) [SULPIRIDE] | g | 234.7 |

Turning now to a further record.
TERMINAL_BW measured on O=C(N[C@H](CO)[C@H](O)c1ccc([N+](=O)[O-])cc1)C(Cl)Cl [CHLORAMPHENICOL] = 251.2

----------
Species on record: Rattus norvegicus
protocol: Open TG-GATES - Regimen: Single
Assay type: toxicity, organism-based, Sprague-Dawley
Parameters: regimen Single, gender Male, age 6 weeks
experimental.setup: in vivo, po, 0 mg/kg, 3 h, tissue Blood, route gavage, dose level Control
parameter: Ht
// return the numeric value with its unit appended

| molecule | experimental.result |
| --- | --- |
| C[C@](N)(Cc1ccc(O)c(O)c1)C(=O)O [METHYLDOPA] | 39.1% |

Just so you know, measured Ht for `Nc1nc(N)c2nc(-c3ccccc3)c(N)nc2n1` came out at 42%

Value of measured Ht for the entry CC(=N)S [THIOACETAMIDE] : 40%

Quick note, Ht for C#C[C@]1(O)CC[C@H]2[C@@H]3CCc4cc(O)ccc4[C@H]3CC[C@@]21C [ETHINYL ESTRADIOL] landed at 39.9%

Ht for O=C(N[C@H](CO)[C@H](O)c1ccc([N+](=O)[O-])cc1)C(Cl)Cl [CHLORAMPHENICOL] is 38.7%

Value of measured Ht for the entry CCSCC[C@H](N)C(=O)O [ETHIONINE] : 39.8%

Recorded Ht (molecule CC(=O)Oc1cc(C(C)C)c(OCCN(C)C)cc1C [MOXISYLYTE] ): 37.8%

Consider Oc1ncnc2[nH]ncc12 [ALLOPURINOL] . Its measured Ht is 41.7%

For record CCN1CCCC1CNC(=O)c1cc(S(N)(=O)=O)ccc1OC (configuration not stated) [SULPIRIDE] the listed Ht is 41.4%

The molecule listed as CCc1oc2ccccc2c1C(=O)c1cc(I)c(O)c(I)c1 [BENZIODARONE] has a reported Ht of 40.7%

For reference, reported Ht for CN1C(=O)OC(C)(C)C1=O [TRIMETHADIONE] stands at 40.1%

For reference, reported Ht for CC(C)(S)[C@@H](N)C(=O)O [PENICILLAMINE] stands at 42.5%

----------
Species on record: Rattus norvegicus
protocol: Open TG-GATES - Regimen: Daily Repeat
Assay type: toxicity, organism-based, Sprague-Dawley
Set-up: regimen Daily Repeat, gender Male, age 6 weeks
experimental.setup: in vivo, po, 0 mg/kg, 72 h, tissue Plasma, route gavage, dose level Control, time 3 day
Attribute: TBIL
The reply should contain only the number, in mg/dL.

Past entries and their recorded results:
| molecule | parameter | unit.abbreviation | experimental.result |
| --- | --- | --- | --- |
| CC(=N)S [THIOACETAMIDE] | TBIL | mg/dL | 0.4 |
| O=C(O)c1cccnc1 [NIACIN] | TBIL | mg/dL | 0 |
| CCN1CCCC1CNC(=O)c1cc(S(N)(=O)=O)ccc1OC (stereo not given) [SULPIRIDE] | TBIL | mg/dL | 0.054 |
| Nc1nc(N)c2nc(-c3ccccc3)c(N)nc2n1 | TBIL | mg/dL | 0.042 |
| CC(=O)Oc1cc(C(C)C)c(OCCN(C)C)cc1C [MOXISYLYTE] | TBIL | mg/dL | 0.014 |

Documented TBIL of C[C@](N)(Cc1ccc(O)c(O)c1)C(=O)O [METHYLDOPA] : 0.056

Form: molecule = C#C[C@]1(O)CC[C@H]2[C@@H]3CCc4cc(O)ccc4[C@H]3CC[C@@]21C [ETHINYL ESTRADIOL] ; TBIL = 0.034

Reported TBIL ( CC(C)C(=O)Nc1ccc([N+](=O)[O-])c(C(F)(F)F)c1 [FLUTAMIDE] ) = 0.1

TBIL reported for this molecule CCc1oc2ccccc2c1C(=O)c1cc(I)c(O)c(I)c1 [BENZIODARONE] : 0.3

Data point: O=C(N[C@H](CO)[C@H](O)c1ccc([N+](=O)[O-])cc1)C(Cl)Cl [CHLORAMPHENICOL] ; TBIL = 0.048

----------
Species: Rattus norvegicus
protocol: Open TG-GATES - Regimen: Daily Repeat
Assay type: toxicity, organism-based, Sprague-Dawley
Design: regimen Daily Repeat, gender Male, age 6 weeks
experimental.setup: in vivo, po, 0 mg/kg, […], tissue Blood, route gavage, dose level Control, time 7 day
Entries annotated with measured WBC
Form entry: value (x10_2/uL) — number only.

| compound | parameter | unit.abbreviation | experimental.result |
| --- | --- | --- | --- |
| C[C@]12CCC(=O)C=C1CC[C@@H]1[C@@H]2CC[C@@]2(C)[C@H]1CC[C@]2(C)O | WBC | x10_2/uL | 87.3 |
| CCN1CCCC1CNC(=O)c1cc(S(N)(=O)=O)ccc1OC (centres undefined) [SULPIRIDE] | WBC | x10_2/uL | 110.2 |
| O=C(N[C@H](CO)[C@H](O)c1ccc([N+](=O)[O-])cc1)C(Cl)Cl | WBC | x10_2/uL | 92.1 |
| CC(C)C(=O)Nc1ccc([N+](=O)[O-])c(C(F)(F)F)c1 [FLUTAMIDE] | WBC | x10_2/uL | 141.3 |
| CCSCC[C@H](N)C(=O)O | WBC | x10_2/uL | 125.1 |

For this compound ( `O=C(O)c1cccnc1` ), measured WBC is 120.8

Record `C[C@](N)(Cc1ccc(O)c(O)c1)C(=O)O` , field WBC: 75.9

WBC reading for `CCC(C)(C)C(=O)O[C@H]1C[C@@H](C)C=C2C=C[C@H](C)[C@H](CC[C@@H]3C[C@@H](O)CC(=O)O3)[C@H]21` : 108.7

Reported WBC of `CN1C(=O)OC(C)(C)C1=O` : 89.3

----------
Organism: Rattus norvegicus
protocol: Open TG-GATES - Regimen: Single
Format: toxicity, organism-based, Sprague-Dawley
Set-up: regimen Single, gender Male, age 6 weeks
experimental.setup: in vivo, po, 0 mg/kg, 9 h, tissue Blood, route gavage, dose level Control
Each entry below lists one item and its recorded MCV value.
The answer is to be given in fL; state only the numeric part.

Value of MCV reported for the compound `C#C[C@]1(O)CC[C@H]2[C@@H]3CCc4cc(O)ccc4[C@H]3CC[C@@]21C` is 64.8

Per the records, this compound ( `CC(=O)Oc1cc(C(C)C)c(OCCN(C)C)cc1C` ) has MCV equal to 62.7

MCV reported for this compound `C[C@]12CCC(=O)C=C1CC[C@@H]1[C@@H]2CC[C@@]2(C)[C@H]1CC[C@]2(C)O` : 62.4

Value of measured MCV for the entry `CCSCC[C@H](N)C(=O)O` : 62.4

----------
Species: Rattus norvegicus
protocol: Open TG-GATES - Regimen: Daily Repeat
Format: toxicity, organism-based, Sprague-Dawley
Parameters: regimen Daily Repeat, gender Male, age 6 weeks
experimental.setup: in vivo, po, 300 mg/kg, […], tissue Plasma, route gavage, dose level Middle, time 7 day
parameter: AST

| molecule | AST |
| --- | --- |
| CCN1CCCC1CNC(=O)c1cc(S(N)(=O)=O)ccc1OC (centres undefined) [SULPIRIDE] | 65.8 IU/L |
| CC(C)(S)[C@@H](N)C(=O)O | 61 IU/L |
| O=C(O)c1cccnc1 | 76 IU/L |

Alright, here's another molecule for you.
For `O=C(N[C@H](CO)[C@H](O)c1ccc([N+](=O)[O-])cc1)C(Cl)Cl` the molecule record lists AST as 72.8 IU/L

----------
Species on record: Rattus norvegicus
protocol: Open TG-GATES - Regimen: Single
Format: toxicity, organism-based, Sprague-Dawley
Set-up: regimen Single, gender Male, age 6 weeks
experimental.setup: in vivo, po, 0 mg/kg, 6 h, tissue Blood, route gavage, dose level Control
parameter: Lym (%)
Give the quantity in %, number only.

| compound | Lym / % |
| --- | --- |
| CCN1CCCC1CNC(=O)c1cc(S(N)(=O)=O)ccc1OC (stereo unspecified) [SULPIRIDE] | 79.4 |
| CCC(C)(C)C(=O)O[C@H]1C[C@@H](C)C=C2C=C[C@H](C)[C@H](CC[C@@H]3C[C@@H](O)CC(=O)O3)[C@H]21 | 79.8 |
| CN1C(=O)OC(C)(C)C1=O | 77.4 |
| CC(C)(S)[C@@H](N)C(=O)O | 79.2 |
| C[C@]12CCC(=O)C=C1CC[C@@H]1[C@@H]2CC[C@@]2(C)[C@H]1CC[C@]2(C)O | 75.6 |

Proceeding to the next compound to report its Lym.
Summary for this compound, `Oc1ncnc2[nH]ncc12` : Lym is 80
